// data source = patent US20110166179A1

System: Streptococcus pneumoniae (ATCC6305)
assayExplanation: In-vitro anti-bacterial microtitre plate assay, IC90 determination, Streptococcus pneumoniae
Format: cell-based
conditionDescription: 90% inhibitory concentration for bacterial growth; Streptococcus pneumoniae ATCC6305; 24 hours, resazurin fluorescence
// boundary case: IC90 SPN 6305 equal to 10 µg/mL maps to not fulfilled; strictly smaller maps to fulfilled

These solved cases illustrate the format of a correct answer.
compound: COc1nc2ccc(-c3cccs3)cc2cc1C(O)(CCCCN(C)C)c1cccc2ccccc12 (stereo not drawn) [Compound 14]
assaySystem: Streptococcus pneumoniae (ATCC6305)
classLabel: not fulfilled
//
compound: COc1nc2ccc(-c3cccnc3)cc2cc1C(O)(CCCCCN(C)C)c1cccc2ccccc12 (stereo not drawn) [Compound 18]
assaySystem: Streptococcus pneumoniae (ATCC6305)
classLabel: fulfilled
//
compound: COc1nc2ccc(-c3cccnc3)cc2cc1C(O)(CCCN(C)C)c1cccc2ccccc12 (stereo not drawn) [Compound 16]
assaySystem: Streptococcus pneumoniae (ATCC6305)
classLabel: fulfilled
//
compound: COc1nc2ccc(-c3ccccc3)cc2cc1C(O)(CCCCN(C)C)c1cccc2ccccc12 (stereo not drawn) [Compound 5]
assaySystem: Streptococcus pneumoniae (ATCC6305)
classLabel: not fulfilled
//
compound: COc1nc2ccc(-c3cccnc3)cc2cc1C(O)(CCCCN(C)C)c1cccc2ccccc12 (stereo not drawn) [Compound 17]
assaySystem: Streptococcus pneumoniae (ATCC6305)
classLabel: not fulfilled

Q. A record lists COc1nc2ccc(-c3ccoc3)cc2cc1C(O)(CCCCCN(C)C)c1cccc2ccccc12 (stereo not drawn) [Compound 12] . Is its IC90 SPN 6305 below 10 µg/mL?
A. fulfilled
